Tested on: melanoma cells
Method Summary: MTT assay, melanoma cell lines of various mutational status
Type: cell-based
Test Conditions: 48 h, regardless of mutational status; read-out: IC50 values across melanoma cell lines
Method: Cell density measurements were performed using a hemocytometer to count reproductive cells resistant to staining with trypan blue. Approximately 20,000 cells were plated into each well of 96-well flat-bottomed micro-titer plates. After 12 h or 24 h incubation at 37° C., medium containing either COH-SR4 (ranging 0-200 μM) or elesclomol (ranging 0-20 μM) were added to the cells. After 24 h, 48 h or 96 h incubation, 20 μL of 5 mg/mL MTT were introduced to each well and incubated for 2 h. […]
pIC50: −log10 of the molar value.
Assay Endpoint: pIC50

Task: Requested field: pIC50. Item: `O=C(Nc1cc(Cl)cc(Cl)c1)Nc1cc(Cl)cc(Cl)c1`
Output: 5.32 to 5.92

Task: Requested field: pIC50. Item: CN(NC(=O)CC(=O)NN(C)C(=S)c1ccccc1)C(=S)c1ccccc1 [elesclomol, reference compound]
Output: ≤ 5.24

---

Test system: H1618 cells
Method Summary: MTT assay, H1618
Assay type: cell-based
Test Conditions: Homo sapiens, 48 h
Assay Endpoint: pIC50
Friendly reminder that pIC50 comes from taking -log10 of the concentration in mol/L.

Task: Look up pIC50 for this compound: `O=C(Nc1cc(Cl)cc(Cl)c1)Nc1cc(Cl)cc(Cl)c1`
Output: 5.82

---

System: A2058
Method Summary: MTT assay, A2058
Type: cell-based
Test Conditions: Homo sapiens, A2058, 96 h
Assay Endpoint: pIC50
As a rule, pIC50 stands for the negative log10 of the concentration, concentration in M.

Task: Short answer please: pIC50, A2058, entry O=C(Nc1cc(Cl)cc(Cl)c1)Nc1cc(Cl)cc(Cl)c1 [COH-SR4, 1,3-bis(3,5-dichlorophenyl) urea]
Output: 4.96

---

Assayed Target: GSTP (Homo sapiens, UniProt P09211)
Sequence (P09211 whole entry): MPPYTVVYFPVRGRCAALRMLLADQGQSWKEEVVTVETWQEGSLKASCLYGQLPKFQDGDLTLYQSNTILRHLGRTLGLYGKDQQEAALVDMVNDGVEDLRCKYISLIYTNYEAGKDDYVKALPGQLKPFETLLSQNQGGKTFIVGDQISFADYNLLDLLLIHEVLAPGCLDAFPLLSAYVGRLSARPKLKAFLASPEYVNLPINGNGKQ
Method Summary: GSTP activity towards CDNB in the presence of GSR4
Test Conditions: activity towards CDNB; read-out: estimated Ki (product inhibitor of GSTP)
Assay Endpoint: Ki

Task: Could you share which Ki value was measured for `O=C(Nc1cc(Cl)cc(Cl)c1)Nc1cc(Cl)cc(Cl)c1` ?
Output: < 5 µM

---

Test system: PBT-017
Method Summary: Glioma ATP viability assay, PBT-017
Assay type: cell-based
Test Conditions: 72 h, Table 2
Assay Endpoint: IC50 (µM)
API: value field is a number in µM; no unit string.

Task: // returns reported IC50 for input `O=C(Nc1cc(Cl)cc(Cl)c1)Nc1cc(Cl)cc(Cl)c1`
Output: 2.1

Task: // returns reported IC50 for input Cn1nnc2c(C(N)=O)ncn2c1=O [TMZ, temozolomide, reference compound]
Output: 13

---

Tested on: Hs600T
Method Summary: MTT assay, Hs600T
Format: cell-based
Test Conditions: Homo sapiens, 96 h
pIC50: −log10 of the molar value.
Assay Endpoint: pIC50

Task: Which value of pIC50 has been reported for `O=C(Nc1cc(Cl)cc(Cl)c1)Nc1cc(Cl)cc(Cl)c1` in the records?
Output: ~5.22

---

For each record, write down the corresponding pIC50.
Tested on: U251
Method Summary: Glioma ATP viability assay, U251
Format: cell-based
Test Conditions: Homo sapiens, U-251, 72 h, Table 2
Would you please state pIC50, meaning minus log10 of the concentration in mol/L, as a bare number?

Task: Param readout= pIC50; system= U251; entry= `CCc1c2c(nc3ccc(OC(=O)N4CCC(N5CCCCC5)CC4)cc13)-c1cc3c(c(=O)n1C2)COC(=O)[C@]3(O)CC` ; returns value.
Output: 4.39

Task: API: value(readout=pIC50, system=U251) for record `O=C(Nc1cc(Cl)cc(Cl)c1)Nc1cc(Cl)cc(Cl)c1`
Output: 5.70

Task: Record lookup: for U251, what pIC50 belongs to Cn1nnc2c(C(N)=O)ncn2c1=O [TMZ, temozolomide, reference compound] ?
Output: 3.43

Every entry's value here was drawn from patent US9808434B2.
